From: a melting point compilation (Tetko et al.; mined from patent text by program, amines drawn as free bases though some values may be those of a salt)

Measured melting point by item

{"compound": "COc1ccc(Cn2c(=O)c3ccccc3n(CCCCN3CCC(OC(c4ccccc4)c4ccccc4)CC3)c2=O)cc1", "melting point": "99 to 100 °C"}
{"compound": "Cc1c(-c2cccc(OCc3ccccc3)c2)n(Cc2ccc(OCCN3CCCCC3)cc2)c2ccc(OCc3ccccc3)cc12", "melting point": "125 to 126 °C"}
{"compound": "CC(C)Oc1ccc(-n2c(CC(=O)O)c(C(=O)O)c3cc(Oc4cccc(C(F)(F)F)c4)ccc32)cc1", "melting point": "203 °C"}
{"compound": "CC(=O)CC1(C(=O)c2ccc([N+](=O)[O-])cc2)C=CC(Cl)=C(Cl)C1 (stereo not drawn)", "melting point": "121 to 122 °C"}
{"compound": "C[Si](C)(CCCc1nnc(N)nc1O)c1ccccc1", "melting point": "250 to 252 °C"}
{"compound": "N#Cc1ccc(CC(=O)Cc2ccc(C#N)cc2)cc1", "melting point": "149 to 150 °C"}
{"compound": "O=C(Nc1ccc(C(F)(F)F)cc1)C1=NN(c2ccc(Cl)c(Cl)c2)C(c2ccc(F)cc2)C1 (stereo not drawn)", "melting point": "242 to 243 °C"}
{"compound": "O=C(NC[C@H]1CN(c2ccc(C3C=CS(=O)(=O)CC3)cc2)C(=O)O1)C(F)F (stereo partly drawn)", "melting point": "135 to 136 °C"}

----------
Measured melting point by item

{"compound": "O=C(OC1CCN(Cc2ccccc2)CC1)c1ccccc1[N+](=O)[O-]", "melting point": "98 to 99 °C"}
{"compound": "CC(C)OC(=O)c1nn(-c2ccc(Cl)cc2)c(=O)c2c(N)scc12", "melting point": "118 to 120 °C"}
{"compound": "COCCOCc1c(CN(C)CC(O)c2cccc(OC)c2)sc2c(=O)c(C(=O)NCc3ccc(Cl)cc3)cn(C)c12 (configuration not stated)", "melting point": "135 to 138 °C"}
{"compound": "CC1C(=O)Oc2cc(N3CCOCC3)ccc21 (configuration not stated)", "melting point": "118 to 121 °C"}
{"compound": "C=C(C)C(=O)OCCCCCCOc1ccc(C(=O)Oc2ccc3ccc(=O)oc3c2)cc1", "melting point": "98 to 104 °C"}
{"compound": "N[C@H]1Cc2ccccc2[C@@H]1O", "melting point": "104 to 106 °C"}
{"compound": "COCCOCCOCCOCCOc1ccc(N)cc1", "melting point": "42 to 44 °C"}
{"compound": "CC(C)(C)OC(=O)c1ncn2c1[C@@H]1CCCN1C(=O)c1c(I)cccc1-2", "melting point": "241 to 242 °C"}
{"compound": "Clc1c(NC2=NCCN2)ccc2nsnc12", "melting point": "232 to 235 °C"}
{"compound": "O=C1NC(=O)C(c2ccccc2)(c2ccc(Br)cc2)N1 (configuration not stated)", "melting point": "237 to 239 °C"}
{"compound": "Cc1cc2cc(P(=O)(O)O)c(=O)[nH]c2cc1C", "melting point": "> 300 °C"}
{"compound": "CC(Cl)(Cl)C(NC(=O)c1cccs1)NC(=NC#N)Nc1ccc(Cl)nc1 (configuration not stated)", "melting point": "201 to 203 °C"}
{"compound": "COc1ccc2c(C=O)c(OCc3ccccc3)ccc2c1C(F)(F)F", "melting point": "143 to 145 °C"}
{"compound": "Cc1ccc2c3c1OC(c1ccccc1)N3C(=O)C1CCCN1C2=O (configuration not stated)", "melting point": "158 to 162 °C"}
{"compound": "O=C(CCCS(=O)c1ccc(Cl)cc1)NO (configuration not stated)", "melting point": "126 to 127 °C"}
{"compound": "CC(C)(C)c1cc(C(=O)c2ncc[nH]2)cc(C(C)(C)C)c1O", "melting point": "286 to 288 °C"}
{"compound": "COC(=O)CC1c2cc(N(C)C)ccc2N(C(C)=O)C1C (configuration not stated)", "melting point": "122 °C"}
{"compound": "OC(=S)c1cc(C(F)(F)F)ccc1O", "melting point": "122 to 125 °C"}
{"compound": "Cc1nc2c3c(c(C(=O)O)cc2n1C)CCC(c1ccccc1)O3 (configuration not stated)", "melting point": "323 to 326 °C"}
{"compound": "CC(=Cc1ccccc1)c1ccc2c(c1)C(C)(C)CCS2(=O)=O", "melting point": "156 to 158 °C"}
{"compound": "Cc1cc2c(cc1C(F)(F)F)N(c1ccc(C(=O)O)cc1)CCC[C@@H]2N(Cc1cc(C(F)(F)F)cc(C(F)(F)F)c1)c1nnn(C)n1", "melting point": "101 to 105 °C"}
{"compound": "N#CC(=Cc1ccc[nH]1)c1cccnc1", "melting point": "139 to 142 °C"}
{"compound": "CN(Cc1ccc2c(Br)c(OCC(=O)O)ccc2c1)C(=O)c1oc2ccccc2c1CCc1ccccc1", "melting point": "119 to 122 °C"}
{"compound": "CCN1c2ncccc2C(=O)N(C)c2ccc(O)nc21", "melting point": "215 to 218 °C"}
{"compound": "CNC(=O)c1ccc(OCC(O)CNC(C)C)nc1 (configuration not stated)", "melting point": "118 to 120 °C"}
{"compound": "Nc1nc(N2CCNCC2)c2nc(-c3ccccc3)c(N)nc2n1", "melting point": "150 to 155 °C"}
{"compound": "CCOC(=O)CNC(=O)CCl", "melting point": "60 to 62 °C"}
{"compound": "CNc1nc(Nc2ccc(Cl)c(Cl)c2)ncc1NC(=O)Oc1ccccc1", "melting point": "306 °C"}
{"compound": "O=C(O)Cc1cc(Cl)ccc1OCCCc1ccccc1", "melting point": "95 to 96.5 °C"}
{"compound": "COC(=O)c1ccc(CCCOCCCCCCNCC(O)c2ccc(O)c(CO)c2)cc1 (configuration not stated)", "melting point": "43 to 45 °C"}
{"compound": "CC(=O)Nc1cccc(-c2ccc3nc(-c4cccnc4N)n(-c4ccc(CNS(=O)(=O)c5cn(C)cn5)cc4)c3n2)c1", "melting point": "190 to 192 °C"}
{"compound": "CC(=O)Nc1ccc(S(F)(F)(F)(F)F)cc1[N+](=O)[O-]", "melting point": "135 to 138 °C"}
{"compound": "Cc1c(C)c2c(c(C)c1O)CCC(C)(C(=O)NC1CCN(c3ccc(NC(=N)c4cccs4)cc3)C1)O2 (configuration not stated)", "melting point": "135 to 138 °C"}
{"compound": "CCCCCc1cnc(N2CCC(c3ccc(COc4ccc(S(C)(=O)=O)cc4)nc3)CC2)nc1", "melting point": "154 to 157 °C"}
{"compound": "COc1ccc(/C=C/c2cc(/C=C/c3c[nH]c4ccccc34)n[nH]2)cc1OCc1ccccn1", "melting point": "232 to 243 °C"}
{"compound": "Cc1ccc2[nH]c3c(cc(-c4cccc(C(=O)N5CCOCC5)c4)c(=O)n3C)c2c1", "melting point": "296 to 298 °C"}
{"compound": "CCCCN1NC(=O)CC2CCc3cc(N)ccc3C21 (configuration not stated)", "melting point": "140 to 142 °C"}
{"compound": "CSc1ncc(CCc2cccnc2)c(=O)[nH]1", "melting point": "191 to 192 °C"}
{"compound": "N#CSCC(Br)=C(Br)CSC#N", "melting point": "180 °C"}
{"compound": "CCC(=O)N1CCC(NC(=O)Nc2ccc(C(=O)OC)cc2)CC1", "melting point": "201 to 204 °C"}
{"compound": "COc1ccc(C(=O)c2c(-c3ccc(O)cc3)sc3cc(O)ccc23)cc1", "melting point": "138 to 140 °C"}
{"compound": "COC(=O)N[C@H](C(=O)N[C@@H](Cc1ccccc1)[C@H](O)CN1C[C@H]2CCCC[C@H]2C[C@H]1C(=O)NC(C)(C)C)C(C)(C)S(C)(=O)=O", "melting point": "190 to 194 °C"}

----------
Measured melting point by item
quantityName: melting point

{"compound": "CC(C)Oc1cc(CCC(=O)NS(=O)(=O)c2ccccc2)n(Cc2ccc(Cl)cc2Cl)n1", "quantityName": "melting point", "measuredValue": "184 to 185 °C"}
{"compound": "O=c1[nH]c2ccccc2n1CCN1CCN(c2ccc(O)c(C(F)(F)F)c2)CC1", "quantityName": "melting point", "measuredValue": "> 250 °C"}
{"compound": "CN1CCC(c2nn(-c3ccccc3C#N)c3ccccc23)CC1", "quantityName": "melting point", "measuredValue": "117 to 119 °C"}
{"compound": "COC(Nc1ccccc1)(OC)c1ccnc(C(=O)c2ccccc2)c1", "quantityName": "melting point", "measuredValue": "123 to 124 °C"}
{"compound": "COCc1cc(-c2ncc3[nH]c4ccc(Cl)c(Cc5ccc(Cl)cc5)c4c3c2COC)no1", "quantityName": "melting point", "measuredValue": "198 to 200 °C"}
{"compound": "O=C1c2ccccc2C(=O)N1C1CCN(CCCc2c[nH]c3ccccc23)CC1", "quantityName": "melting point", "measuredValue": "187 to 190 °C"}
{"compound": "CNc1cc(NS(=O)(=O)c2ccc(N)cc2)nc(N2CCCC2)n1", "quantityName": "melting point", "measuredValue": "299 to 301 °C"}
{"compound": "Cc1cccc(-c2n[nH]cc2-c2ccc(F)c(-c3csc(C(C)(C)O)n3)c2)n1", "quantityName": "melting point", "measuredValue": "78 to 80 °C"}
{"compound": "O=c1oc(-c2cccc(-c3ccccc3)c2)cc(O)c1SCCc1ccccc1", "quantityName": "melting point", "measuredValue": "93 to 94 °C"}
{"compound": "O=C(OCc1ccccc1)N1CCOc2cc(Oc3cc(Cl)ncn3)ccc21", "quantityName": "melting point", "measuredValue": "110 °C"}
{"compound": "O=C(NCCN1CCN(C(c2ccc(F)cc2)c2ccccn2)CC1)C1CSC(c2cccnc2)N1 (stereo not drawn)", "quantityName": "melting point", "measuredValue": "144 to 146 °C"}
{"compound": "O=C(Nc1cnc2ccccc2c1)c1cc2cc(F)ccc2n1Cc1cccc(F)c1", "quantityName": "melting point", "measuredValue": "244 to 246 °C"}
{"compound": "Cc1ccccc1P(=O)(O)c1ccccc1C", "quantityName": "melting point", "measuredValue": "174 to 175 °C"}
{"compound": "OCCc1nccn1CCCCc1ccc(O)cc1", "quantityName": "melting point", "measuredValue": "75 to 77 °C"}
{"compound": "CCC(C)c1ccccc1SC1=C(O)CC(CCc2ccccc2)(c2ccccc2)OC1=O (stereo not drawn)", "quantityName": "melting point", "measuredValue": "67 to 68 °C"}
{"compound": "COC(=O)C12CCc3ccccc3C1=NN(C(=O)Nc1ccc(C(F)(F)F)cc1)C2 (stereo not drawn)", "quantityName": "melting point", "measuredValue": "177 to 180 °C"}
{"compound": "Nc1ccc(S(=O)C2=CCCCC2)cc1[N+](=O)[O-] (stereo not drawn)", "quantityName": "melting point", "measuredValue": "139 to 140 °C"}
{"compound": "COc1ccc(Cl)cc1-c1c(S)c(=O)[nH]c2ccc(C(F)(F)F)cc12", "quantityName": "melting point", "measuredValue": "239 to 241 °C"}
{"compound": "Oc1cc(Cl)nnc1-c1ccc(F)cc1", "quantityName": "melting point", "measuredValue": "254 to 260 °C"}
{"compound": "CC(=O)c1ccc(OCCCOc2cc(N)c(C)cc2Cl)c(CCC(F)(F)F)c1O", "quantityName": "melting point", "measuredValue": "111 to 113 °C"}
{"compound": "O=c1[nH]c2cc([N+](=O)[O-])c3c(c2[nH]c1=O)CN(C(=S)Nc1ccccc1)CC3", "quantityName": "melting point", "measuredValue": "270 to 274 °C"}
{"compound": "CCOCc1nc2c(N)nc3cc(OCc4ccccc4Cl)ccc3c2n1CC(C)C", "quantityName": "melting point", "measuredValue": "211 to 212 °C"}
{"compound": "CCc1c(-c2ccc(OCc3ccccc3)cc2)c2cc(C(=O)O)c3c(NC(C)=O)ccc1n23", "quantityName": "melting point", "measuredValue": "244 to 246 °C"}
{"compound": "Cc1c(-c2ccccc2)nc2cc(Cl)ccc2c1C(=O)N[C@@H](C)C1CCCCC1", "quantityName": "melting point", "measuredValue": "204 to 207 °C"}
{"compound": "Oc1ccc(-c2nc3cc(O)c(Br)cc3o2)cc1F", "quantityName": "melting point", "measuredValue": "224 to 226 °C"}
{"compound": "CCOC(=O)c1cn(C2CC2)c2cc(C3=CCN(C(C)=O)CC3)c(F)cc2c1=O", "quantityName": "melting point", "measuredValue": "190 to 192 °C"}
{"compound": "O=C(c1sc2ccc(C(F)(F)F)cc2c1O)N(C=Cc1ccccc1)C=Cc1ccccc1", "quantityName": "melting point", "measuredValue": "165 to 167 °C"}
{"compound": "CN(C)c1nc(=O)n(-c2cc(OCc3ccccc3)c(Cl)cc2F)c(=O)n1C", "quantityName": "melting point", "measuredValue": "193 to 194 °C"}
{"compound": "COc1ccc(C2(C#Cc3cccc(C#N)c3)CCC(=O)CC2)cc1OC1CCCC1", "quantityName": "melting point", "measuredValue": "124 to 126 °C"}
{"compound": "CC(=O)Oc1ccc2c(c1)Cc1cc(C(C)=O)ccc1-2", "quantityName": "melting point", "measuredValue": "126 to 128 °C"}
{"compound": "O=C1CCC(C(=O)OC(C(=O)c2ccccc2)c2ccccc2)N1 (stereo not drawn)", "quantityName": "melting point", "measuredValue": "123 to 131 °C"}
{"compound": "COC(=O)c1coc2c1C(=O)CCC2", "quantityName": "melting point", "measuredValue": "100 to 102 °C"}
{"compound": "O=C(O)c1cc(NC(=O)C(F)(F)F)c(C(=O)c2ccccc2)c(OCc2ccccc2)c1", "quantityName": "melting point", "measuredValue": "213 °C"}
{"compound": "CCOC(=O)c1c(S(N)(=O)=O)nc2sccn12", "quantityName": "melting point", "measuredValue": "164 to 166 °C"}
{"compound": "CCCCCCCCc1ccc(CCC2(NC(=O)OC(C)(C)C)COC(C)(C)OC2)cc1", "quantityName": "melting point", "measuredValue": "120 to 124 °C"}
{"compound": "CN(C)S(=O)(=O)c1ccc(-c2ccc(N)cc2)cc1", "quantityName": "melting point", "measuredValue": "178 to 180 °C"}
{"compound": "COc1ccc(-c2[nH]nc3c2C(=O)c2c(NC(=O)CN4CCN(c5ccccn5)CC4)cccc2-3)cc1", "quantityName": "melting point", "measuredValue": "> 300 °C"}
{"compound": "COc1cc(C)nc(NC(=O)NS(=O)(=O)Cc2ccccc2-c2nnc(SC)o2)n1", "quantityName": "melting point", "measuredValue": "194 to 196 °C"}
